biological target: Xanthine dehydrogenase/oxidase (Bos taurus, UniProt P80457)
Sequence (P80457 whole entry): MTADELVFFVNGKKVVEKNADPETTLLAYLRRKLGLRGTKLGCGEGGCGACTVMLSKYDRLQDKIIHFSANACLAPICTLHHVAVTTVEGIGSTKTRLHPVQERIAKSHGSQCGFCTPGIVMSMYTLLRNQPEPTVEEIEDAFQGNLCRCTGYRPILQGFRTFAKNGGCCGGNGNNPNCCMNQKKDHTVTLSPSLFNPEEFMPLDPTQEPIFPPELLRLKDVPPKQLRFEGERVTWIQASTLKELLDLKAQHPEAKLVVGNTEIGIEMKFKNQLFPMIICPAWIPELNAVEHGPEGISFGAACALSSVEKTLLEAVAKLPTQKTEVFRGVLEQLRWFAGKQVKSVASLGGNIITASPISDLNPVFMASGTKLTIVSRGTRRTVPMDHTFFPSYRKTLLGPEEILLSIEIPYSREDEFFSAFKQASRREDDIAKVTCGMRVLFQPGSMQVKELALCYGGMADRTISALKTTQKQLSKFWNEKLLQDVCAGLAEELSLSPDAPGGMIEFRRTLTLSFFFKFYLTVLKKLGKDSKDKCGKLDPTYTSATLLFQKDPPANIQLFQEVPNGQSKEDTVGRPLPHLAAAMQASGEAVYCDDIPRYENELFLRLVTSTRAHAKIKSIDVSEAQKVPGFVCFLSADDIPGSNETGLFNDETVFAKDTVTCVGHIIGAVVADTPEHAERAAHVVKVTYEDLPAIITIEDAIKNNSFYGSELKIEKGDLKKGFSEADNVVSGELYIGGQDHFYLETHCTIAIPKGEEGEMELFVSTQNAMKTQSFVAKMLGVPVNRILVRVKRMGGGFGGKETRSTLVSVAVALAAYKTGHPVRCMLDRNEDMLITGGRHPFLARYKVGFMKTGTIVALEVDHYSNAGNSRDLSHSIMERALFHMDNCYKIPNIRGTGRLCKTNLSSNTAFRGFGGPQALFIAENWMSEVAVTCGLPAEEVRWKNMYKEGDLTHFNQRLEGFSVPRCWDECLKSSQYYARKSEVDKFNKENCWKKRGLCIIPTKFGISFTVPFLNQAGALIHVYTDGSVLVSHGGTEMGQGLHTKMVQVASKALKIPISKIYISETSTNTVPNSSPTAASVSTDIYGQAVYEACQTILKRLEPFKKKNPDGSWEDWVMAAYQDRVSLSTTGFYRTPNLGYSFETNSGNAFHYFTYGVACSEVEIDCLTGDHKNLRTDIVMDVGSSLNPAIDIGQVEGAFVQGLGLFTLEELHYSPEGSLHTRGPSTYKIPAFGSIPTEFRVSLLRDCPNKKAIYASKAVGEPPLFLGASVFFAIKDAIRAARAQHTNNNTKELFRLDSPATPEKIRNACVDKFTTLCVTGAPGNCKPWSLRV
pIC50: −log10 of the molar value.
Value Kind: pIC50

Compound: CC(=O)NC(CC(=O)c1ccccc1)c1ccc(Cl)cc1 (stereo not given)
Experimental Target: Xanthine dehydrogenase/oxidase (Bos taurus, UniProt P80457)
pIC50: 4.57

Compound: COc1ccc(C(CC(=O)c2ccccc2)NC(C)=O)c(OC)c1OC (stereo not given)
Experimental Target: Xanthine dehydrogenase/oxidase (Bos taurus, UniProt P80457)
pIC50: 4.34

Compound: CC(=O)NC(CC(=O)c1ccc(Cl)cc1)c1ccc(C)cc1 (stereo not given)
Experimental Target: Xanthine dehydrogenase/oxidase (Bos taurus, UniProt P80457)
pIC50: 4.35

[a] CC(=O)NC(CC(=O)c1ccccc1)c1cccc2ccccc12 (stereo not given)
[b] CC(=O)NC(CC(=O)c1cccs1)c1ccccc1 (stereo not given)
Ask | Please indicate which item has the smaller measured pIC50: a versus b Output the label that corresponds to your choice.
Reply | a
